Biological target: TLR7 (Mus musculus)
Construct: endogenous in cells; host or cells: mouse bone marrow-derived dendritic cells (BMDCs)
Assay: IL-6 release in mouse BMDCs (ELISA)
Format: cell-based
Settings: BMDCs, 18 hours, ELISA; means ± SD
valueType: EC50 (nM)
Give bare numbers, in nM.

Kindly note the recorded EC50 for COCCOc1nc(N)c2[nH]c(=O)n(Cc3ccc(C(=O)O)cc3)c2n1 , which is 1080

----------
Biological target: TLR7 (Mus musculus, UniProt P58681)
Construct: endogenous in cells; host or cells: mouse bone marrow-derived dendritic cells (BMDCs)
Sequence (P58681 27-1050): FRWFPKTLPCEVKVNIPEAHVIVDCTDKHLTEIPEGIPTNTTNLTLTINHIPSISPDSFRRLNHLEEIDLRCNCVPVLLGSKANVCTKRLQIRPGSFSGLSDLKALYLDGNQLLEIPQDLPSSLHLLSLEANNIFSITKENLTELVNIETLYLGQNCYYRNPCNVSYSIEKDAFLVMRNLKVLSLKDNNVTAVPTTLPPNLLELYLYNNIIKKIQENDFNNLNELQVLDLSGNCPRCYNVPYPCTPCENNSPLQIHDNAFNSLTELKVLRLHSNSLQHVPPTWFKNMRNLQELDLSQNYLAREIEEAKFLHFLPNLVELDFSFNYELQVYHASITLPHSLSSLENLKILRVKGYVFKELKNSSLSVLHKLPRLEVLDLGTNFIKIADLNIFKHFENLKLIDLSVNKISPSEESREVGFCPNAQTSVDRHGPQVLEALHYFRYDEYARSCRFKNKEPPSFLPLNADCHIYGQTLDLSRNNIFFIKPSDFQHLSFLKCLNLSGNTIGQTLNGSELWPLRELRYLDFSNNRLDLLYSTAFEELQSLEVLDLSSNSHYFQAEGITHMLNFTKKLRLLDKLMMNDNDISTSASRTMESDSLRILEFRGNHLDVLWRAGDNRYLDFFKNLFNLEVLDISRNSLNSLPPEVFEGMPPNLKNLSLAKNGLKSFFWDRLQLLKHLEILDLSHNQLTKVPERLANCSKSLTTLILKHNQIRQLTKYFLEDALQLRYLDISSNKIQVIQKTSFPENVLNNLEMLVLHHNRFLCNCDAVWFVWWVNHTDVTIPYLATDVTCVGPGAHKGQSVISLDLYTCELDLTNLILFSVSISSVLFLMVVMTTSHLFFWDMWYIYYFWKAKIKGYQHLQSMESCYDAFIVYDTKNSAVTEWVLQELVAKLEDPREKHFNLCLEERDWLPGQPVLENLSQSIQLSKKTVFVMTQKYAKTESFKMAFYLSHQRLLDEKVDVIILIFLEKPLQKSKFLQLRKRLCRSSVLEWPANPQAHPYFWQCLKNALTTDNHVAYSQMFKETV
Assay: IL-12 release in mouse BMDCs (ELISA)
Assay type: cell-based
Details: BMDCs, 18 hours, ELISA; means ± SD
valueType: EC50 (nM)
One number for each entry, in nM.

Memo: COCCOc1nc(N)c2[nH]c(=O)n(Cc3ccc(C(=O)O)cc3)c2n1 , reported EC50: 883
